Quick list: 80% Growth Inhibition Concentration (IC80) per entry.
System: Aspergillus fumigatus
Assay: Antibacterial test to Aspergillus fumigatus (96-hole plate, IC80)
Type: cell-based
Conditions: YNB culture with 0.22% low melting point-agarose, 1×10^4 cell/ml, 25° C., 72 hours, absorbance at 620 nm
Endpoint: 80% Growth Inhibition Concentration (IC80) (µg/mL)

INSERT INTO results (compound, unit_string, observed_value) VALUES
  ('CC(C)(CNCc1cnccn1)Cc1ccc(C(C)(C)C)cc1 [Compound I-4]', 'µg/mL', 75),
  ('CC(C)(CNCc1ccc(Cl)nc1)Cc1ccccc1Cl [Compound I-3]', 'µg/mL', 9),
  ('CC(C)(CNCc1ccccn1)Cc1ccc(C(C)(C)C)cc1 [Compound I-1]', 'µg/mL', 5),
  ('CC(C)(CNCc1ccc(Cl)nc1)Cc1ccc(C(C)(C)C)cc1 [Compound I-2]', 'µg/mL', 38),
  ('CC(C)(CNCc1cnc(Cl)cn1)Cc1ccc(C(C)(C)C)cc1 [Compound I-5]', 'µg/mL', 9),
  ('CC(C)(CNCc1ccncn1)Cc1ccc(C(C)(C)C)cc1 [Compound I-10]', 'µg/mL', 38),
  ('Cn1cc(CNCC(C)(C)Cc2ccc(F)cc2F)cn1 [Compound I-9]', 'µg/mL', 150),
  ('Cn1cc(CNCC(C)(C)Cc2ccc(C(C)(C)C)cc2)cn1 [Compound I-6]', 'µg/mL', 9),
  ('Cn1cc(CNCC(C)(C)Cc2ccccc2F)cn1 [Compound I-7]', 'µg/mL', 150);
